assay: Components of the Cytosolic LPS Sensing Pathway: Gene Identification via Genome-wide siRNA Screen; conditions: RAW264.7 macrophages, IL-1a HTRF, actives lie on both sides, screened at 100 nM (by protocol), cells primed 5 h with Pam3CSK4 first
Screen size: about 53,000 sequences; about 3,700 (7%) were called active.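 The calls were made as follows: active = gene knockdowns whose robust z-score for IL-1 alpha signal is at least 2 or at most -2, so actives lie on both sides; inactive = the rest.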 This excerpt belongs to a sample that is enriched for actives.
Respond with a class label; see TRUE for active, FALSE for inactive

- residue-codes: "GGGUAUCUGAUUUAUAAGCTT against Mageh1"
  label-class: "FALSE"

Each sequence tested received a call. Report the one for GGAGAAACCAGGAUCUAUUTT against Rnf14 .
TRUE

Source of measurements: PubChem BioAssay AID1508600
